The measured values listed here are drawn from the CheMixHub ionic liquid set.

A collection of molecules and their measured electrical conductivity
experiment: xn = mol fraction of the nth substance listed; settings: 313.15 K; 101 kPa; x2 = 0.001799; x1 = 9.1e-07
Field: numeric (S/m). Do not append units.

Before answering, review these 3 worked examples.
MOLECULE: CCCCCCCCCCCCCCCC[n+]1ccccc1.O=C([O-])c1ccccc1O + NCC(=O)O + O
RECORDED_MEASUREMENT: 0.00119
--
MOLECULE: CCCCCCCCCCCCCCCC[n+]1ccccc1.O=C([O-])c1ccccc1O + NCC(=O)NCC(=O)O + O
RECORDED_MEASUREMENT: 0.00576
--
MOLECULE: CCCCCCCCCCCCCCCC[n+]1ccccc1.O=C([O-])c1ccccc1O + CC(C)C[C@H](N)C(=O)O + O
RECORDED_MEASUREMENT: 0.00275

Prompt: Fill blank: measured electrical conductivity of the molecule CCCCCCCCCCCCCCCC[n+]1ccccc1.O=C([O-])c1ccccc1O + C[C@H](N)C(=O)O + O is ____.
Response: 0.00123

---

experiment: xn = mol fraction of the nth substance listed; conditions: 313.15 K; 101 kPa; x2 = 0.001799; x1 = 3.6e-07
MEASURED_ATTRIBUTE: electrical conductivity (S/m)
Field: numeric (S/m). Do not append units.

Before answering, review these 4 worked examples.
COMPOUND: CCCCCCCCCCCCCCCC[n+]1ccccc1.O=C([O-])c1ccccc1O + CC(C)[C@H](N)C(=O)O + O
electrical conductivity (S/m): 0.00189

COMPOUND: CCCCCCCCCCCCCCCC[n+]1ccccc1.O=C([O-])c1ccccc1O + NCC(=O)O + O
electrical conductivity (S/m): 0.0009

COMPOUND: CCCCCCCCCCCCCCCC[n+]1ccccc1.O=C([O-])c1ccccc1O + C[C@H](N)C(=O)O + O
electrical conductivity (S/m): 0.000829

COMPOUND: CCCCCCCCCCCCCCCC[n+]1ccccc1.O=C([O-])c1ccccc1O + NCC(=O)NCC(=O)O + O
electrical conductivity (S/m): 0.00529

Please look at the following compound next.
Prompt: Fill blank: measured electrical conductivity of the compound CCCCCCCCCCCCCCCC[n+]1ccccc1.O=C([O-])c1ccccc1O + CC(C)C[C@H](N)C(=O)O + O is ____.
Response: 0.00235
